FYI, the data here is from patent US20230091047A1.

Assay: in vitro
Type: cell-based
Conditions: human, HepG2 or HepG2.117 cells, 3-days incubation (unmarked values), ATPlite; mean value
Mark T for CC50 at 3 days under 30 µM, F if at or over.

CNC(=O)c1ccc(-n2c(N[C@H](c3ccccc3)C3CC3)nc3c(c2=O)C[C@@H](C)N(C(=O)c2ccc(Cl)c(Cl)c2)C3)cc1 (single isomer, unassigned) [Compound C343]    T

Q. Please check: CC50 at 3 days for COc1ccc(CNc2nc3c(c(=O)n2-c2cccnc2C)CCN(C(=O)c2ccc(Cl)c(Cl)c2)C3)cc1 [Compound C96] , strictly under 30 µM or not?
A. T

---

Assay: in vitro
Type: cell-based
Conditions: human, HepG2 or HepG2.117 cells, 3-days incubation (unmarked values), ATPlite; mean value
readout_label: CC50 at 3 days

A selection of reference data follows.
COc1ccccc1-n1c(N(C)C)nc2c(c1=O)CCN(C(=O)c1ccc(Cl)c(Cl)c1)C2    > 50 µM
CC(C)Nc1nc2c(c(=O)n1-c1ccc(N3CCOCC3)cc1)C[C@@H](C)N(C(=O)c1ccc(Cl)c(Cl)c1)C2    > 50 µM
C[C@@H]1Cc2c(nc(NC3(c4ccncc4)CC3)n(-c3ccc(S(C)(=O)=O)cc3)c2=O)CN1C(=O)c1ccc(Cl)c(Cl)c1    > 50 µM

Record summary for `CC(C)Nc1nc2c(c(=O)n1-c1ccc(-c3ccns3)cc1)C[C@@H](C)N(C(=O)c1ccc(Cl)c(Cl)c1)C2` : reported CC50 at 3 days = > 50 µM

Reported CC50 at 3 days of `COc1cc(-n2c(NC(C)C)nc3c(c2=O)CCN(C(=O)c2ccc(Cl)c(Cl)c2)C3)cc(S(C)(=O)=O)c1` : > 50 µM

For `CC(C)Nc1nc2c(c(=O)n1-c1ccc(S(C)(=O)=O)cc1)CCN(C(=O)c1cc3cc(F)ccc3[nH]1)C2` the compound record lists CC50 at 3 days as > 50 µM

For this compound ( `CNC(=O)c1ccc(-n2c(NC34CC(C3)C4)nc3c(c2=O)C[C@@H](C)N(C(=O)c2ccc(Cl)c(Cl)c2)C3)cc1` ), measured CC50 at 3 days is > 50 µM

CC50 at 3 days in this record for `CC(C)Nc1nc2c(c(=O)n1-c1ccc(-n3cccn3)cc1)C[C@@H](C)N(C(=O)c1ccc(Cl)c(Cl)c1)C2` : > 50 µM

CC50 at 3 days reading for `CC(C)Nc1nc2c(c(=O)n1-c1ccc(-c3nccs3)cc1)C[C@@H](C)N(C(=O)c1ccc(Cl)c(Cl)c1)C2` : > 50 µM

Measured CC50 at 3 days of `COc1ccc(CNc2nc3c(c(=O)[nH]2)CCN(C(=O)c2ccc(Br)c(F)c2)C3)cc1` : 21 µM

// CC50 at 3 days value for `CC(C)Nc1nc2c(c(=O)n1-c1ccc(-c3n[nH]c(Br)n3)cc1)C[C@@H](C)N(C(=O)c1ccc(Cl)c(Cl)c1)C2` : > 50 µM

// CC50 at 3 days lookup, compound = COc1ccc(CNc2nc3c(c(=O)n2-c2ccc(S(C)(=O)=O)cc2)C[C@@H](c2ccc(F)cc2)N(C(=O)c2ccc(Cl)c(Cl)c2)C3)cc1 (single isomer, unassigned) [Compound C109A] , result: > 50 µM

---

System: HBV (HepG2.117 cell line, inducibly HBV producing)
Assay: Anti-HBV activity: intracellular HBV DNA by real-time PCR in HepG2.117 cells after 3 days of treatment
Format: cell-based, hepatitis B virus
Conditions: Hepatitis B virus, HepG2.117, 72 h, HepG2.117 cells, 3 days of treatment, intracellular HBV DNA by real-time PCR; mean value; read-out: EC50 (μM, mean value)
readout_label: EC50 (µM)
Give a bare numeral; the unit µM is implied.

COc1ccc(CNc2nc3c(c(=O)n2-c2ccccc2OC)CCN(C(=O)c2ccc(F)c(Cl)c2)C3)cc1    8.48
CC(C)Nc1nc2c(c(=O)n1-c1ccc(C(=O)NCCN3CCN(C)CC3)cc1)C[C@@H](C)N(C(=O)c1ccc(Cl)c(Cl)c1)C2    0.62

Shifting focus to the compound that follows.
Memo: `COc1ccccc1-n1c(NCc2ccc(S(C)(=O)=O)cc2)nc2c(c1=O)CCN(C(=O)c1ccc(Cl)c(Cl)c1)C2` , reported EC50: 1.98

---

Assay: in vitro
Assay type: cell-based
Conditions: human, HepG2 or HepG2.117 cells, ATPlite, 3-days incubation (not marked with *), mean value
// assign 1 (yes) if CC50 at 3 days falls strictly below 30 µM, else 0 (no) (ties count as 0 (no))

Worked cases, answers included:
CNC(=O)c1ccc(-n2c(NC(C)C)nc3c(c2=O)C[C@@H](C)N(C(=O)c2ccc(Br)c(Cl)c2F)C3)cc1    0 (no)
CNC(=O)c1ccc(-n2c(NC(C)C)nc3c(c2=O)C[C@@H](C)N(C(=O)c2ccc(OC(F)(F)F)c(Cl)c2)C3)cc1    0 (no)
CNC(=O)c1ccc(-n2c(N[C@@H](C)c3ccccc3C(F)(F)F)nc3c(c2=O)C[C@@H](C)N(C(=O)c2ccc(Cl)c(Cl)c2)C3)cc1    1 (yes)

Q. Lab log: compare recorded CC50 at 3 days with 30 µM; is it strictly lower for `CNC(=O)c1ccc(-n2c(N[C@@H](C)c3ccc(OC(F)(F)F)cc3)nc3c(c2=O)C[C@@H](C)N(C(=O)c2ccc(Cl)c(Cl)c2)C3)cn1` ?
A. 0 (no)

Q. CC50 at 3 days strictly < 30 µM for this compound? `CNC(=O)c1n[nH]c(-n2c(NC(C)C)nc3c(c2=O)C[C@@H](C)N(C(=O)c2ccc(Cl)c(Cl)c2)C3)c1Cl`
A. 0 (no)

Q. Field: below-cutoff. Rule: recorded CC50 at 3 days strictly less than 30 µM. Subject: CNC(=O)c1ccc(-n2c(N[C@@H](C)c3cccc(C(F)F)c3)nc3c(c2=O)C[C@@H](C)N(C(=O)c2ccc(Cl)c(Cl)c2)C3)cc1 (single isomer, unassigned) [Compound C660b]
A. 1 (yes)

Q. Does the reported CC50 at 3 days of CNC(=O)c1ccc(-n2c(NCC34C5C6C7C5C3C7C64)nc3c(c2=O)C[C@@H](C)N(C(=O)c2ccc(Cl)c(Cl)c2)C3)cc1 (some centres unmarked) stay below 30 µM?
A. 0 (no)

---

Assay: in vitro
Format: cell-based
Settings: human, HepG2 or HepG2.117 cells, 3-days incubation (unmarked values), ATPlite; mean value
Description: Cytotoxicity of the compounds was tested using HepG2 or HepG2.117 cells, incubated for 3 or 4 days in the presence of compounds. The viability of the cells was assessed using the PERKIN ELMER ATPlite Luminescence Assay System.”
Collected CC50 at 3 days values appear next to each entry.
# number only, unit µM dropped from output

Consider the following illustrative entries.
CNC(=O)c1ccc(-n2c(N[C@H](C)C3CC3)nc3c(c2=O)C[C@@H](C)N(C(=O)c2ccc(Cl)c(Cl)c2)C3)cc1 [Compound C295]    37.2
CNC(=O)[C@H]1CC[C@@H](n2c(NC(C)C)nc3c(c2=O)C[C@@H](C)N(C(=O)c2ccc(Cl)c(Cl)c2)C3)CC1 [Compound C280]    24.6
CNC(=O)c1ccc(-n2c(N(C)C34CC(C3)C4)nc3c(c2=O)C[C@@H](C)N(C(=O)c2ccc(Cl)c(Cl)c2)C3)cc1 [Compound C345]    21.6

Now examine the next entry.
According to the records, this compound COc1ccc(C(CCO)Nc2nc3c(c(=O)[nH]2)CCN(C(=O)c2ccc(Cl)c(Cl)c2)C3)cc1 (stereo not shown) [Compound C92] displays CC50 at 3 days of 24.8

---

Test: in vitro
Assay type: cell-based
Details: human, HepG2 or HepG2.117 cells, ATPlite, 3-days incubation (not marked with *), mean value
readout_label: CC50 at 3 days

Worked set:
CNC(=O)c1ccc(-n2c(NC(C)C)nc3c(c2=O)C[C@@H](C)N(C(=O)c2ccc(C)c(F)c2)C3)cc1    > 50 µM
CNC(=O)c1cc(-n2c(NC(C)C)nc3c(c2=O)C[C@@H](C)N(C(=O)c2ccc(Cl)c(C(F)(F)F)c2)C3)nn1C    > 50 µM
CNC(=O)c1ccc(-n2c(NCc3c[nH]nn3)nc3c(c2=O)C[C@@H](C)N(C(=O)c2ccc(Cl)c(Cl)c2)C3)cc1    > 50 µM
CNC(=O)c1ccc(-n2c(NCc3cccc(-c4nccn4C)c3)nc3c(c2=O)C[C@@H](C)N(C(=O)c2ccc(Cl)c(Cl)c2)C3)cc1    28.2 µM
CNC(=O)c1ccc(-n2c(N[C@H](C)c3ccc(F)c(OC)c3)nc3c(c2=O)C[C@@H](C)N(C(=O)c2ccc(Cl)c(Cl)c2)C3)cc1 (single isomer, unassigned) [Compound C435a]    26.4 µM

For the next question, use this compound.
Documented CC50 at 3 days of `CNC(=O)c1ccc(-n2c(NC(C)C)nc3c(c2=O)C[C@@H](C)N(C(=O)c2ccc(Cl)c(OC(F)(F)F)c2)C3)cc1` : > 50 µM
